# System: KM12
# Procedure Text: NCI tumour cell line growth inhibition, 48 h
Active and inactive are the calls of the source. Rule as the data show it: active = GI50 up to about 1.1 µM and inactive = higher.

{"Compound": "Brc1ccccc1/C=C\\C1(c2ccccc2)OCCO1", "GI50": "2.34 µM (inactive)"}
{"Compound": "CCOC(=O)/C(C#N)=C/Nc1c(C)n(C)n(-c2ccccc2)c1=O", "GI50": "> 100 µM (inactive)"}
{"Compound": "O=C(N/N=C/c1ccc(Cl)cc1)c1cc(I)cc(I)c1O", "GI50": "> 100 µM (inactive)"}
{"Compound": "CC1C2CC(C(S(=O)(=O)O)C2=O)C1(C)C (stereo not drawn)", "GI50": "> 100 µM (inactive)"}
{"Compound": "C/C(CC(=O)Nc1cccc(Cl)c1C)=N\\NC(N)=S", "GI50": "> 100 µM (inactive)"}
{"Compound": "NC1=C(N2CCOCC2)C(=O)NC2=N/C(=C\\c3ccccc3O)C(=O)N21", "GI50": "> 100 µM (inactive)"}
{"Compound": "CN1CCN(Cn2nc(COc3ccc(Cl)cc3)n(/N=C/c3ccc(-c4ccc(Cl)cc4Cl)o3)c2=S)CC1", "GI50": "3.18 µM (inactive)"}
{"Compound": "CC1=NN(c2ccccc2)C(=O)/C1=C\\c1ccc([N+](=O)[O-])cc1", "GI50": "26.4 µM (inactive)"}
{"Compound": "CC(C)(C)N/N=N/c1cn(C2OC(CO)C(O)C2O)c(=O)[nH]c1=O (stereo not drawn)", "GI50": "> 100 µM (inactive)"}
{"Compound": "COCCOCOC(C)(C)[C@H](CCO)O[Si](c1ccccc1)(c1ccccc1)C(C)(C)C", "GI50": "11.5 µM (inactive)"}
{"Compound": "CC1=NN(c2nc(N)nc(COc3ccc(N)cc3)n2)C(C)(C)C1", "GI50": "> 100 µM (inactive)"}
{"Compound": "S=C(Nc1ccccc1)N1N=C2c3ccccc3CC[C@H]2[C@@H]1c1ccccc1", "GI50": "2.79 µM (inactive)"}
{"Compound": "Clc1ccc(C(OCn2ccnc2)c2nc3ccccc3[nH]2)c(Cl)c1 (stereo not drawn)", "GI50": "> 100 µM (inactive)"}
{"Compound": "COc1nc(NC2OC(COC(C)=O)C(OC(C)=O)C(OC(C)=O)C2OC(C)=O)c(/N=C(\\C)C(C)=O)c(=O)n1C (stereo not drawn)", "GI50": "> 100 µM (inactive)"}
{"Compound": "CCCCCCCCCCCC[C@@H](O)[C@H]1CC[C@H]([C@H]2CC[C@H]([C@H](O)CC[C@H](O)CCCCCCCC3=C[C@H](C)OC3=O)O2)O1", "GI50": "1.44 µM (inactive)"}
{"Compound": "O=C1NC(=O)C(Cc2ccccc2)(c2cccnc2)N1 (stereo not drawn)", "GI50": "> 100 µM (inactive)"}
{"Compound": "CC(=O)OC[C@@]1(C)[C@@H]2[C@@H]3[C@@]4(CO[C@]3(C)C(=O)[C@@]3(O)C[C@H](C)[C@H](OC(C)=O)[C@@H]3[C@H]4OC(C)=O)[C@H](OC(=O)c3ccccc3)C[C@@H]21", "GI50": "> 100 µM (inactive)"}
{"Compound": "Cc1csc2nc(-c3ccc(Cl)c([N+](=O)[O-])c3)c(/C=N/NC(=N)N)n12", "GI50": "1.75 µM (inactive)"}
{"Compound": "Cc1nc(Cc2n[nH]c(C)n2)n[nH]1", "GI50": "> 100 µM (inactive)"}
{"Compound": "CC(C)OC(=O)C1=C2c3ncccc3C(=O)N2[C@@H](Cl)[C@H](Cl)[C@H]1Cl", "GI50": "> 100 µM (inactive)"}
{"Compound": "Clc1ccc(/C=N/Nc2nnc3c4ccccc4c4ncccc4c3n2)cc1", "GI50": "> 10 µM (inactive)"}
{"Compound": "O=C(NN1C(=O)CS(=O)(=O)C1c1ccc(C(F)(F)F)cc1)c1ccncc1 (stereo not drawn)", "GI50": "> 100 µM (inactive)"}
{"Compound": "CC[C@@]1(C[C@H]2C[C@@]3(C(=O)OC)c4[nH]c5ccccc5c4CCN3C2=S)COC2(CCCCC2)O1", "GI50": "4.47 µM (inactive)"}
{"Compound": "Cc1c2cc[n+](C)cc2c(C)c2c1[nH]c1ccc(OCC(F)(F)F)cc12", "GI50": "2.53 µM (inactive)"}
{"Compound": "O=[N+]([O-])c1ccc2nc(O)n[n+]([O-])c2c1", "GI50": "> 100 µM (inactive)"}
{"Compound": "CC1=NN(c2cccc(Cl)c2)C2(SCC(=O)N2c2nc3ccccc3s2)/C1=C\\c1ccccc1 (stereo not drawn)", "GI50": "16.1 µM (inactive)"}
{"Compound": "C[N+](C)(C)CCC(=O)N1C/C(=C\\c2ccccc2)C(=O)/C(=C/c2ccccc2)C1", "GI50": "1.6 µM (inactive)"}
{"Compound": "O=C(/C=C/c1ccsc1)c1ccsc1", "GI50": "18.9 µM (inactive)"}

###

# Tested on: M14
# Procedure Text: NCI tumour cell line growth inhibition, 48 h
The source made the active and inactive calls. Cut-off read from the data, not from the text of the source: active = GI50 up to about 1.1 µM and inactive = higher. Peptide text beside a SMILES is read from it. * marks the point of attachment. Cbz = O=C(OCc1ccccc1)*; OBn = c1ccc(CO*)cc1
Outcome codes: y = active, n = inactive

{"Molecule": "CC(=O)N1CCC2(c3ccccc3N(C(C)=O)C2c2ccc(O)cc2)C1C(=O)O (stereo not given)", "Answer Label": "n"}
{"Molecule": "CCOC(=O)Cc1nnc2c(-c3ccccc3)nc3ccccc3n12", "Answer Label": "n"}
{"Molecule": "CC[C@@]1(C[C@H]2C[C@@]3(C(=O)OC)c4[nH]c5ccccc5c4CCN3C2=S)COC2(CCCCC2)O1", "Answer Label": "n"}
{"Molecule": "CCOP(=O)(OCC)OC1C=CC2CCC1C2 (stereo not given)", "Answer Label": "n"}
{"Molecule": "CN(C)CCNc1ccc2c(=O)n(CCN(C)C)c(=O)n3c4ccc(N)cc4c(=O)c1c23", "Answer Label": "y"}
{"Molecule": "N#C/C(=C\\c1ccccc1)C(NO)Nc1ccccc1 (stereo not given)", "Answer Label": "n"}
{"Molecule": "CC(C)OC(=O)C1=C2c3ncccc3C(=O)N2[C@@H](Cl)[C@H](Cl)[C@H]1Cl", "Answer Label": "n"}
{"Molecule": "CC(C)(C)N/N=N/c1cn(C2OC(CO)C(O)C2O)c(=O)[nH]c1=O (stereo not given)", "Answer Label": "n"}
{"Molecule": "COC(=O)CNC(=O)C(C)NC(=O)C(CC(=O)OCc1ccccc1)NC(=O)OCc1ccccc1 (stereo not drawn) (Cbz-Asp(OBn)-Ala-Gly-OMe; configuration not given here)", "Answer Label": "n"}
{"Molecule": "CCC1C(=O)C(O)[C@H]2[C@@H]3C(O)CC4=CC(=O)CC[C@]4(C)[C@H]3CC[C@]12C (stereo not given in full)", "Answer Label": "n"}
{"Molecule": "CSc1c(C(=O)Nc2ccccc2)c(N)n(N)c(=O)c1C#N", "Answer Label": "n"}
{"Molecule": "O=C(c1ccccc1)c1ccc2c(c1)nc1n2C(c2c(Cl)cccc2Cl)SC1 (stereo not given)", "Answer Label": "n"}
{"Molecule": "O=C(Nc1ccc(Cl)c(Cl)c1)C(=O)C(C(=O)c1ccccc1-c1ccccc1)C1OC(=O)c2ccccc21 (stereo not given)", "Answer Label": "n"}
{"Molecule": "CCOc1ccccc1NC(=O)CCC(=O)OC", "Answer Label": "n"}
{"Molecule": "CCOC(=O)C(C)c1nc2cc(F)c(N3CCOCC3)cc2[nH]c1=O (stereo not given)", "Answer Label": "n"}

###

# Test system: TK-10
# Procedure Text: NCI tumour cell line growth inhibition, 48 h
Active and inactive are the calls of the source. Cut-off read from the data, not from the text of the source: active = GI50 up to about 1.1 µM and inactive = higher.
Some compounds, each annotated with its measured GI50.

{"Compound": "C=C[C@H]1CN2CCc3c([nH]c4c([C@H]5CCCN5C)c(O)ccc34)[C@@H]2C[C@@H]1C[C@H]1c2[nH]c3ccccc3c2CCN1C", "Assay Target": "TK-10", "GI50": "1.83 µM (inactive)"}
{"Compound": "COc1ccc(/C=C2\\CN(C)CC3C2=NC(=S)NC3c2ccc(OC)cc2)cc1 (stereo not given)", "Assay Target": "TK-10", "GI50": "27.2 µM (inactive)"}
{"Compound": "[O-][S+](Nc1ccccc1)c1ccccc1Oc1ccccc1 (stereo not given)", "Assay Target": "TK-10", "GI50": "> 100 µM (inactive)"}
{"Compound": "Cc1c(C)c2c(c(N)c1C#N)C(=O)N(CCN1CCNCC1)C2=O", "Assay Target": "TK-10", "GI50": "36.7 µM (inactive)"}
{"Compound": "CC1=C([S+]([O-])c2ccc(C)cc2)CCC2(CCCCO2)O1 (stereo not given)", "Assay Target": "TK-10", "GI50": "> 100 µM (inactive)"}
{"Compound": "N#COc1ccc(Oc2ccccc2)cc1", "Assay Target": "TK-10", "GI50": "> 100 µM (inactive)"}
{"Compound": "CC1C[C@H](OC(N)=O)C(C)CC1=O (stereo not given in full)", "Assay Target": "TK-10", "GI50": "> 100 µM (inactive)"}
{"Compound": "O=C1c2ccccc2C(=O)C12CCc1ccccc12", "Assay Target": "TK-10", "GI50": "> 100 µM (inactive)"}
{"Compound": "CC(C)OC(=O)C1=C2c3ncccc3C(=O)N2[C@@H](Cl)[C@H](Cl)[C@H]1Cl", "Assay Target": "TK-10", "GI50": "> 100 µM (inactive)"}
{"Compound": "Cc1csc2nc(-c3ccc(Cl)c([N+](=O)[O-])c3)c(/C=N/NC(=N)N)n12", "Assay Target": "TK-10", "GI50": "2.2 µM (inactive)"}
{"Compound": "O=C1c2ccccc2-n2c1nc1cc(Cl)ccc1c2=O", "Assay Target": "TK-10", "GI50": "> 100 µM (inactive)"}
{"Compound": "CN(CCO)c1nc(N)cc(=O)[nH]1", "Assay Target": "TK-10", "GI50": "> 100 µM (inactive)"}
{"Compound": "Cc1c(-c2nc(N)nc(C3CC3)c2C)nc(N)nc1C1CC1", "Assay Target": "TK-10", "GI50": "> 100 µM (inactive)"}
{"Compound": "Clc1ccc(/C=N/Nc2nnc3c4ccccc4c4ncccc4c3n2)cc1", "Assay Target": "TK-10", "GI50": "> 10 µM (inactive)"}
{"Compound": "C=C1CN(Cc2ccccc2)[C@@H]2CCCCC[C@H](C#N)[C@H]12", "Assay Target": "TK-10", "GI50": "> 100 µM (inactive)"}
{"Compound": "O=C(NN1C(=O)CS(=O)(=O)C1c1ccc(C(F)(F)F)cc1)c1ccncc1 (stereo not given)", "Assay Target": "TK-10", "GI50": "> 100 µM (inactive)"}
{"Compound": "COC(=O)CN1CCN(c2cccc3c2CCCC3)CC1", "Assay Target": "TK-10", "GI50": "93.8 µM (inactive)"}
{"Compound": "C=C1CCOC2(C(O)C(C)(O)CO)NC(=O)C1(O)NC2=O (stereo not given)", "Assay Target": "TK-10", "GI50": "> 100 µM (inactive)"}
{"Compound": "COc1ccc(/C=C2\\N=C(SC)N(CN3CCOCC3)C2=O)cc1", "Assay Target": "TK-10", "GI50": "56.5 µM (inactive)"}
{"Compound": "CCCCCCC(C)c1ccc2c(c1)C(=O)c1nc3ccncc3c(=O)n1-2 (stereo not given)", "Assay Target": "TK-10", "GI50": "4.86 µM (inactive)"}
{"Compound": "COC(=O)CC[C@@H](C)[C@H]1CC[C@H]2[C@@H]3CC[C@@H]4C[C@H](O)CC[C@]4(C)[C@H]3CC[C@]12C", "Assay Target": "TK-10", "GI50": "20.3 µM (inactive)"}
{"Compound": "Cc1ccc(/C=C/C(=O)c2sc(-c3nc(C)c(C(=O)/C=C/c4ccc(C)cc4)s3)nc2C)cc1", "Assay Target": "TK-10", "GI50": "> 100 µM (inactive)"}
{"Compound": "O=C(CSc1nnc(Cc2ccccc2)o1)Nc1ccccc1", "Assay Target": "TK-10", "GI50": "> 100 µM (inactive)"}
{"Compound": "N#Cc1nc(Cc2ccccc2)oc1N", "Assay Target": "TK-10", "GI50": "> 100 µM (inactive)"}
{"Compound": "CCOP(=O)(OCC)OC1C=CC2CCC1C2 (stereo not given)", "Assay Target": "TK-10", "GI50": "> 100 µM (inactive)"}

These entries and their values trace back to ChEMBL document CHEMBL1201862.
